- ASSAY TARGET: CDK12/Cyclin K (Homo sapiens)
- Sequence (O75909 whole entry): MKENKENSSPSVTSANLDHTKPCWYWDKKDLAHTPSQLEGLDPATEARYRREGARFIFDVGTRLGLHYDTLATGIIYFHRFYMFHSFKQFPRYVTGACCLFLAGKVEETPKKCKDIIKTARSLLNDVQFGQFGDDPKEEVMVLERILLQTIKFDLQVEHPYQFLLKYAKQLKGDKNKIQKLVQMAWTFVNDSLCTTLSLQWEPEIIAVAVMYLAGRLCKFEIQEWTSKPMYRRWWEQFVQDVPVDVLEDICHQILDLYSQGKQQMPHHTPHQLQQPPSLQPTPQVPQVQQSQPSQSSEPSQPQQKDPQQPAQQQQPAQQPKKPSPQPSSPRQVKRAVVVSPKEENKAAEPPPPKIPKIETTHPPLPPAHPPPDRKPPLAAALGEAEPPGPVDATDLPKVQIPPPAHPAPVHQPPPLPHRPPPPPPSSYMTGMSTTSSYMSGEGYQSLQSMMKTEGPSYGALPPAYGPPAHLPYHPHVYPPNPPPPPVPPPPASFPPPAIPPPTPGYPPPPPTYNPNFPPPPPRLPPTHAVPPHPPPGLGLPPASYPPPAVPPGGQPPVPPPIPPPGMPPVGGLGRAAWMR
- Sequence (Q9NYV4 whole entry): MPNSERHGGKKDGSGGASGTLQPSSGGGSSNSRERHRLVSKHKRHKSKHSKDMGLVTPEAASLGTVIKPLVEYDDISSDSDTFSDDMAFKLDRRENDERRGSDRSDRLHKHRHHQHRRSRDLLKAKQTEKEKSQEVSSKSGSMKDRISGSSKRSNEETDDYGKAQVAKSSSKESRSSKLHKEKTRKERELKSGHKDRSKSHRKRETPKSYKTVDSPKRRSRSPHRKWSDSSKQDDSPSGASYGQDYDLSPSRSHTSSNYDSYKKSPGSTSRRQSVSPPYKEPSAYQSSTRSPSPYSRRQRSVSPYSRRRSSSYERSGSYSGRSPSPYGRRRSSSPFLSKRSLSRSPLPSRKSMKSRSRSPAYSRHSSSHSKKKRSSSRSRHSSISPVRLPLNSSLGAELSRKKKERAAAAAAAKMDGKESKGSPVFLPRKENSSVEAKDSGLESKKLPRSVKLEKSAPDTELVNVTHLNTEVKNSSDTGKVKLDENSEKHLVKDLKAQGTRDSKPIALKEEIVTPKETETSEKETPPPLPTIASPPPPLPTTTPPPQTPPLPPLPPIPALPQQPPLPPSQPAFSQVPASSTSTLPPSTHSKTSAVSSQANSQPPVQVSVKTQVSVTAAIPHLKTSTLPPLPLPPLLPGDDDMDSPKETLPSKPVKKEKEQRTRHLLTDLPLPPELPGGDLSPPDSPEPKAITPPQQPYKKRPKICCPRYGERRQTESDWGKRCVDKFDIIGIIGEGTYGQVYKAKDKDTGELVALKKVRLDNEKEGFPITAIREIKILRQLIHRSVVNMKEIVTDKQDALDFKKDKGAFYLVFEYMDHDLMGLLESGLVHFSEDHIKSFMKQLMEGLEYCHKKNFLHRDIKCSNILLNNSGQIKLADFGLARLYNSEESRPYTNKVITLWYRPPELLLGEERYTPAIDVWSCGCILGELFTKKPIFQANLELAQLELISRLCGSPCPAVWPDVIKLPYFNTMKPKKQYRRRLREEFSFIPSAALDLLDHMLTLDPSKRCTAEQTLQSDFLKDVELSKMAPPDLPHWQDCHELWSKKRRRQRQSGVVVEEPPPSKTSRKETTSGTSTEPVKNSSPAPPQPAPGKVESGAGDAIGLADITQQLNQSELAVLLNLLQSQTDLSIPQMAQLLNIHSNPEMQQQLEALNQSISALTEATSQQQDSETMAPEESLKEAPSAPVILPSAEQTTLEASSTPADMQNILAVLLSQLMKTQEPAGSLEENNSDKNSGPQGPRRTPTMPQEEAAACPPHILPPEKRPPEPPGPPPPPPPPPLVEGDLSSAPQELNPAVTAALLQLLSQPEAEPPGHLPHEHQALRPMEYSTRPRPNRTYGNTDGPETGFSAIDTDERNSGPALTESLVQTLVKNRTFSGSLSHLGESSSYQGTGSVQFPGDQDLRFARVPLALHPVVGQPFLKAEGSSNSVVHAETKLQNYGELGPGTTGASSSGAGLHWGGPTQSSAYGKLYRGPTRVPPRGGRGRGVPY
- EXPERIMENTAL PROTOCOL: Inhibition of CDK12/cyclinK (unknown origin) using RBER-IRStide as substrate and in presence of ATP preincubated for 30 mins followed by addition of substrate measured after 1 hr by ADP-Glo reagent assay
pIC50: −log10 of the molar value.
QUANTITY MEASURED: pIC50

1. c1cnn2ncc(-c3ccnc4[nH]c(CN5CCNCC5)cc34)c2c1
≤ 6.00
